# Tested on: SNB-75 CNS
# procedure details: NCI tumour cell line growth inhibition, 48 h

compound | target entity | readout relation | TGI (µM)
CCCNc1ncnc2c1ncn2C | SNB-75 CNS | > | 100
NNC(=O)CNc1cccc(Br)c1 | SNB-75 CNS | > | 100
C[C@H](CCC(=O)O)[C@H]1CC[C@H]2[C@@H]3C(=O)C[C@@H]4C[C@H](O)CC[C@]4(C)[C@H]3C[C@H](O)[C@]12C | SNB-75 CNS | > | 100
Cc1ccccc1C(=O)c1cc(O)ccc1O | SNB-75 CNS | > | 100
CC1(C)OC2C(CO[Si](C)(C)C(C)(C)C)OC(n3c(I)c(C#C[Si](C)(C)C)c(=O)[nH]c3=O)C2O1 (stereo unspecified) | SNB-75 CNS | > | 100
COc1ccc2nc3ccccc3c(NCc3ccc(F)cc3)c2c1 | SNB-75 CNS | = | 9.2
CCC(C)(C)c1ccc(OCCCCNC(=O)c2ccc3ccccc3c2O)c(C(C)(C)CC)c1 | SNB-75 CNS | > | 100
CCN1CN(c2ccccc2)C2(CCN(CC3COc4ccccc4O3)CC2)C1=O (stereo unspecified) | SNB-75 CNS | = | 94
C[n+]1c(/C=C/c2c(O)ccc3ccccc23)ccc2ccccc21 | SNB-75 CNS | = | 14.2
Cc1cc2c(=O)c3ccccc3[nH]c2c(C(N)=O)c1C | SNB-75 CNS | > | 100
NC(=O)c1c(NC(=O)c2ccccc2)sc2c1CCC(=O)C2 | SNB-75 CNS | = | 6.05
COc1cc(N=Nc2ccc(O)c3ncccc23)c2ncccc2c1 | SNB-75 CNS | > | 100
C=C1C(=O)CC2C1CC(=O)/C(C)=C/CCC(C)(O)C2O (stereo unspecified) | SNB-75 CNS | = | 28
O=C1N=C2Sc3ccc4ccccc4c3N2C1=O | SNB-75 CNS | = | 40.7
COC(=O)/C(=N\NC(N)=S)C(C(=O)OC)C(=O)C(=O)Nc1ccc(C)cc1 (stereo unspecified) | SNB-75 CNS | > | 100
CC1CC2CCCC(O)=C2C(=O)O1 (stereo unspecified) | SNB-75 CNS | > | 100
COc1cc(O)c2c(c1)C(=O)c1cc3c(c(O)c1C2=O)C(OC1OC(C)C(OC)C(O)C1OC)C(OC)C(C)(O)C3=O (stereo unspecified) | SNB-75 CNS | = | 16
O=C(Cc1ccc(F)c(Cl)c1)Nc1cc(C2(C(F)(F)F)CC2)nn1CC1CCCCC1 | SNB-75 CNS | = | 5.99
Cc1ccc(C2=CC(=O)OC(C[P+](c3ccccc3)(c3ccccc3)c3ccccc3)(c3ccccc3)O2)cc1 (stereo unspecified) | SNB-75 CNS | = | 36.2
O=C(CC1C(=O)Nc2ccccc2S1=O)Nc1cc(Cl)ccc1Cl (stereo unspecified) | SNB-75 CNS | > | 100
C[C@@H]1C[C@@H]([C@@H](CC2CC(=O)NC(=O)C2)OC(=O)CC(=O)c2ccccc2)C(=O)[C@@H](C)C1 | SNB-75 CNS | > | 55.1

----------
# Test system: HCT-116 colon
# procedure details: NCI tumour cell line growth inhibition, 48 h
Measured TGI by item

substance smiles | readout relation | TGI [µM]
CN1CCN(c2ccc(Nc3cc(-c4cccc(-n5ccc6cc(C7CC7)cc(F)c6c5=O)c4CO)cn(C)c3=O)nc2)CC1 | = | 18.9
Cc1ccc(C)c(NC(=O)c2cccc([N+](=O)[O-])c2O)c1 | = | 81
O=C1N=C2Sc3ccc4ccccc4c3N2C1=O | = | 32.9
C[C@@H]1C[C@@H]([C@@H](CC2CC(=O)NC(=O)C2)OC(=O)CC(=O)c2ccccc2)C(=O)[C@@H](C)C1 | > | 45.2
CCCCCCCCCCCCCCCCNc1cccc2ccccc12 | > | 100
